- TEST_TARGET: T1, canine OX40L, full length membrane form, expressed on HEK293 cells (canine)
- T1 chain: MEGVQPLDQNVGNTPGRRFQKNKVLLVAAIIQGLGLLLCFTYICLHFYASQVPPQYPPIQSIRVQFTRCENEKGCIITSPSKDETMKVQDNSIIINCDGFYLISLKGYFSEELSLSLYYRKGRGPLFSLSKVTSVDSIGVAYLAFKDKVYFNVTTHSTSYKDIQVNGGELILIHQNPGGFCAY
- EXPERIMENT: cell-based or functional assay
QUANTITY: % Signal Inhibition Rep1
Could you write the number and then its unit?

Given the binder PMX028 (antibody, V domains shown, also called PMX28) VH: EVQMVESGGDLVKPGGSLRLSCVASGFTFSDYHMSWVRQAPGKGLQWVAYITSGGSSTSYADAVKGRFTISRDNAKNTLYLQMNSLRAEDTAVYYCASDLVLVVGGGVYWGQGTLVTVSS VL: SYELTQPPSVNVTLRETAHITCGGDSIGSKYVQWIQQNPGQAPVVIIYKDSNRPTGIPERFSGANSGNTATLTISGALAEDEADYYCQVGDSGTKAVFGEGTQLTVL , what is its reported % Signal Inhibition Rep1?
61.7%

Name the reported % Signal Inhibition Rep1 value associated with the binder PMX053 (antibody, V domains shown, also called PMX53) VH: EVQLVESGGDLVKPAGSLRLSCVASGFTFSSYSMSWVRQAPEKGLQLVAGINSAGSSTYYTDAVKGRFTISRDNAKNTVYLQMNSLRAEDTAIYYCAKRWVFDYWGQGTLVTVSS VL: DIVMTQTPLSLSVSPGEPASISCKASQSLPHSLGNTYLYWFRQKPGQSPQRLIYKVSNRDPGVPDRFSGSGSGTDFTLRISRVEADDAGIYYCGQGIQDPFTFGQGTKLEIK
24.5%
